study_system: influenza B polymerase (PA-PB1-PB2 heterotrimer, FluB) (Influenza B virus, UniProt Q5V8Z9;Q5V8Y6;Q5V8X3 1-726;1-752;1-770)
protocol_notes: fluorescence anisotropy; 1:1 stoichiometry
particulars: protein: recombinant; copies: 1;1;1; label: FAM-Ex-5; single strand
metric: Kd

Report Kd for UACCCUCUUGUUACUACU (ssRNA) [c3' 1-18] please.
< 0.01 µM
